biological target: T1, human LILRA6 protein (human, UniProt Q6PI73 24-447, limits assumed); assay: ELISA, LILRA6 protein; also: test concentration or dose not given here
T1 construct: protein for ELISA; construct not described; also called hLILRA6 protein
T1 sequence (Q6PI73 24-447 limits assumed): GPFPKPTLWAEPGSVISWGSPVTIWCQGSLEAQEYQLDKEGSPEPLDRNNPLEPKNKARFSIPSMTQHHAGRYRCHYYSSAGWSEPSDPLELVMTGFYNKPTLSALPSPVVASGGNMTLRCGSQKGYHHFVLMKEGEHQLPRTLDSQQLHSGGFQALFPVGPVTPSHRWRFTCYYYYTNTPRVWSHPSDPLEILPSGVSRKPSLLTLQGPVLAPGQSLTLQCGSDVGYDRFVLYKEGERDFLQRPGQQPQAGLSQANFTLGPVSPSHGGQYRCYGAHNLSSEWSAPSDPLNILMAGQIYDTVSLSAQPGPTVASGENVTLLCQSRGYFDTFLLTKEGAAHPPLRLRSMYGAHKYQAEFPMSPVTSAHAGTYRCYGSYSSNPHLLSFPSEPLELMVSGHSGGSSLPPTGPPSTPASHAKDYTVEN
Measured ELISA(OD450), listed per entry for reference.
quantity_kind: ELISA(OD450)

ch25-G9-G4-C12 (antibody, V domains shown) VH: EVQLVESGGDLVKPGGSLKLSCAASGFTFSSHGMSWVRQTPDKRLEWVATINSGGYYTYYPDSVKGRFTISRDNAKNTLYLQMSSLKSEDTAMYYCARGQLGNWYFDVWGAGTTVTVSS VL: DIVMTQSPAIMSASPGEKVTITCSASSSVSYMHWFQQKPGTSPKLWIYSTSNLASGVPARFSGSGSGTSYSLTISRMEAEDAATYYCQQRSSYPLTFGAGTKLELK : 0.687
ch4-E6-E4-B12 (antibody, V domains shown) VH: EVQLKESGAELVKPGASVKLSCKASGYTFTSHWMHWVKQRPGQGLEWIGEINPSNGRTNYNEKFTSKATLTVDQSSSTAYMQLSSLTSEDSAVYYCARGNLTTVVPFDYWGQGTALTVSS VL: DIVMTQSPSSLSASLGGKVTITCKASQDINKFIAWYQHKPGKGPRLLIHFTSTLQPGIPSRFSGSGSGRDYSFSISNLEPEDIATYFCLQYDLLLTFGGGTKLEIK : 0.353
